species: Rattus norvegicus; experiment: Open TG-GATES - Regimen: Daily Repeat; format: toxicity, organism-based, Sprague-Dawley; design: regimen Daily Repeat, gender Male, age 6 weeks; conditions: in vivo, po, 100 mg/kg, […], route gavage, dose level Low, time 7 day
quantity: TERMINAL_BW (g)
Respond numerically; units are g and should not be typed.

Sample answers from the record:
compound	reported_value
CC(C)(S)[C@@H](N)C(=O)O	276.9
O=C(O)c1cccnc1	273.1
O=C(N[C@H](CO)[C@H](O)c1ccc([N+](=O)[O-])cc1)C(Cl)Cl	287.8

From here, focus on the item given below.
// Input: CCN1CCCC1CNC(=O)c1cc(S(N)(=O)=O)ccc1OC (centres undefined) [SULPIRIDE] . Output its TERMINAL_BW only. 265
